- Tested on: NCI-H23
- test: NCI tumour cell line growth inhibition, 48 h
The source made the active and inactive calls. Rule as the data show it: active = GI50 up to about 1.1 µM and inactive = higher.
Outcome codes: y (active), n (inactive)

{"columns": ["compound", "assigned_category"],
 "data": [
  ["CCOC(=O)/C(=C\\NCC(O)c1ccccc1)c1nc2ccccc2[nH]1 (configuration not stated)", "n"],
  ["Cc1cc(N(CCC#N)S(=O)(=O)c2ccccc2)ccc1/C=N\\c1cccc(C(=O)O)c1", "n"],
  ["COC(=O)C(Cc1ccccc1)NC(=O)c1ccc(CNC(=S)NCc2cccc(CNC(=S)NCc3ccccc3)c2)cc1 (configuration not stated)", "n"],
  ["Oc1ccccc1/C=N/c1nc2cc3sc(/N=C/c4ccccc4O)nc3cc2s1", "n"],
  ["Cc1ccc(Cl)c2[nH]c(-c3ccccc3)cc(=O)c12", "n"],
  ["Oc1cc(-c2cccc(OCc3ccccc3)c2)nc2cc3c(cc12)OCO3", "y"],
  ["CC(C)C12CCC3(CCC4C(C)(C(=O)O)CCCC4(C)C3C1)C(CN)C2 (configuration not stated)", "n"],
  ["CCN1c2ccccc2C(C(SC)S(=O)(=O)c2ccc(C)cc2)c2c1[nH]c(=O)n(C)c2=O (configuration not stated)", "n"],
  ["C[C@@H]1C[C@H]2[C@@H]3CCC4=CC(=O)C=C[C@]4(C)[C@@]3(Cl)[C@@H](Cl)C[C@]2(C)[C@@]1(O)C(=O)COP(=O)(O)O", "n"],
  ["N#Cc1ccccc1NC(=O)c1ccccc1", "n"],
  ["NC1=CN(Cc2ccccc2)C2=N/C(=C\\c3ccco3)C(=O)N12", "n"],
  ["CCOP(=O)(/C=C\\n1ccc(N)nc1=O)OCC", "n"]
]}
